Each recorded value in this set is attributed to patent US20240400654A1.

Listed next: entries and their corresponding OD450 nm.
experimentalSystem: HRgpA-6H (Porphyromonas gingivalis) (UniProt P28784)
protocolNotes: ELISA, coated HRgpA-6H
measureName: OD450 nm

[[record]]
binder = "KB001 mouse Fab VL S30W (Fab, V domains shown) VH: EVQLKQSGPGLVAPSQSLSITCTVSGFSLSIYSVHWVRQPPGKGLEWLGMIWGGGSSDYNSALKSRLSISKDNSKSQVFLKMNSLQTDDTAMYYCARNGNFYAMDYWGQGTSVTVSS VL: QIVLTQSPAIMSASLGERVTMTCTASSSVWSSFLHWYQQKPGSSPQLWIYSTSNLASGVPARFSGSGSGTSYSLTISSMEAEDAATYYCHQYHHSPYIYTFGGGTKLEIK"
result = 0.823

[[record]]
binder = "KB001 mouse Fab VL T24I (Fab, V domains shown) VH: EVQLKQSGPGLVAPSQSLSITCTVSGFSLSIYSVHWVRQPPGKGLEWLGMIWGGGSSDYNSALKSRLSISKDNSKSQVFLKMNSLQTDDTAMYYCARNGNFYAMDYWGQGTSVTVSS VL: QIVLTQSPAIMSASLGERVTMTCIASSSVSSSFLHWYQQKPGSSPQLWIYSTSNLASGVPARFSGSGSGTSYSLTISSMEAEDAATYYCHQYHHSPYIYTFGGGTKLEIK"
result = 0.741

[[record]]
binder = "KB001 mouse Fab VL S53W (Fab, V domains shown) VH: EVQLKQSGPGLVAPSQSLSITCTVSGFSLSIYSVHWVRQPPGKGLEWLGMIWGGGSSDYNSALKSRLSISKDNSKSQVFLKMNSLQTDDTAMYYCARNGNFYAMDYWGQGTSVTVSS VL: QIVLTQSPAIMSASLGERVTMTCTASSSVSSSFLHWYQQKPGSSPQLWIYSTWNLASGVPARFSGSGSGTSYSLTISSMEAEDAATYYCHQYHHSPYIYTFGGGTKLEIK"
result = 0.727

[[record]]
binder = "KB001 mouse Fab VL L34I (Fab, V domains shown) VH: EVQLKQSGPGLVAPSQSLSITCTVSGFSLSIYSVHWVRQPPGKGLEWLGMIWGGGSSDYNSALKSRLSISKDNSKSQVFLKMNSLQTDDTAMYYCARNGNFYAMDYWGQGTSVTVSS VL: QIVLTQSPAIMSASLGERVTMTCTASSSVSSSFIHWYQQKPGSSPQLWIYSTSNLASGVPARFSGSGSGTSYSLTISSMEAEDAATYYCHQYHHSPYIYTFGGGTKLEIK"
result = 0.67

[[record]]
binder = "KB001 mouse Fab VH S30R (Fab, V domains shown) VH: EVQLKQSGPGLVAPSQSLSITCTVSGFSLRIYSVHWVRQPPGKGLEWLGMIWGGGSSDYNSALKSRLSISKDNSKSQVFLKMNSLQTDDTAMYYCARNGNFYAMDYWGQGTSVTVSS VL: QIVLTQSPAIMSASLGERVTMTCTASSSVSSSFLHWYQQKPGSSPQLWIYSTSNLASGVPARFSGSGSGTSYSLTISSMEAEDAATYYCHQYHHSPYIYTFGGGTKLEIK"
result = 0.481

